Assay system: T1, Recombinant Human TNF-α/TNFSF1A (human, UniProt P01375 77-233)
T1 construct: also called hTNF-α; huTNFα
T1 sequence (P01375 77-233 limits assumed): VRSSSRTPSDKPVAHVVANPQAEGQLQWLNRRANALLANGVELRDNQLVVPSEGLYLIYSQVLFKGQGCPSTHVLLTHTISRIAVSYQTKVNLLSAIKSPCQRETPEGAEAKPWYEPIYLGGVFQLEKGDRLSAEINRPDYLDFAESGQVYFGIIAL
Protocol summary: SPR (BIACORE), antibody captured, TNFα in solution
Readout: kon (M⁻¹ s⁻¹)
Expressed in M⁻¹ s⁻¹, but write only the number.

Example cases with answers are listed next.
AB370 (antibody, V domains shown, Full-length humanized antibody made in HEK 293-6E; also called hMAK199VH.2/hMAK199VL.1a) VH: EVQLVQSGAEVKKPGASVKVSCKASGYTFTNYGMNWVRQAPGQGLEWMGWINTYTGEPTYADDFKGRVTMTTDTSTSTAYMELSSLRSEDTAVYYCARKFLTTVVVTDYAMDYWGQGTTVTVSS VL: DIQMTQSPSSLSASVGDRVTITCRASQDISNYLNWYQQKPGKTVKLLIYYTSRLQSGVPSRFSGSGSGTDYTLTISSLQPEDFATYFCQQGNTLPPTFGQGTKLEIK : 1e+06
AB374 (antibody, V domains shown, Full-length humanized antibody made in HEK 293-6E; also called hMAK199VH.2/hMAK199VL.2b) VH: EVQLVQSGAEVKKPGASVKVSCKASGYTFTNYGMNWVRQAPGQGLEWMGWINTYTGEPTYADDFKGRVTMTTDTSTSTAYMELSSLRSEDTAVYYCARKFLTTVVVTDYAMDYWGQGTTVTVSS VL: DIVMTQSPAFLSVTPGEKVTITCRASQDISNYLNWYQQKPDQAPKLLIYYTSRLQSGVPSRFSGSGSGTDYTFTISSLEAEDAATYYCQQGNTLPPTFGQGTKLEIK : 1.2e+06
AB364 (antibody, V domains shown, Full-length humanized antibody made in HEK 293-6E; also called hMAK199VH.1b/hMAK199VL.1a) VH: EVQLVQSGSELKKPGASVKVSCKASGYTFTNYGMNWVRQAPGQGLEWMGWINTYTGEPTYADDFKGRFVFSLDTSVSTAYLQISSLKAEDTAVYFCARKFLTTVVVTDYAMDYWGQGTTVTVSS VL: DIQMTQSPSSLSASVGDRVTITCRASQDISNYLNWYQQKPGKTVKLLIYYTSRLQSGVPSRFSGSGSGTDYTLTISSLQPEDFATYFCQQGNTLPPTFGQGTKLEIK : 1.2e+06

Exercise: Find the measured kon of AB363 (antibody, V domains shown, Full-length humanized antibody made in HEK 293-6E; also called hMAK199VH.1b/hMAK199VL.1) VH: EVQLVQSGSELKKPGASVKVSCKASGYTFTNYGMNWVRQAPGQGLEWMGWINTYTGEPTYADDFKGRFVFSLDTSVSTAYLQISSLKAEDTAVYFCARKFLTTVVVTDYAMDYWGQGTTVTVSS VL: DIQMTQSPSSLSASVGDRVTITCRASQDISNYLNWYQQKPGKAPKLLIYYTSRLQSGVPSRFSGSGSGTDFTLTISSLQPEDFATYYCQQGNTLPPTFGQGTKLEIK and report it.
Solution: 1.4e+06

Exercise: Please indicate kon recorded for AB373 (antibody, V domains shown, Full-length humanized antibody made in HEK 293-6E; also called hMAK199VH.2/hMAK199VL.2a) VH: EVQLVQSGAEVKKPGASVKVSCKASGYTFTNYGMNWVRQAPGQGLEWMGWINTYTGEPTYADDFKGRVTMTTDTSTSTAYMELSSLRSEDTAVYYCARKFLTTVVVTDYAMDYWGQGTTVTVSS VL: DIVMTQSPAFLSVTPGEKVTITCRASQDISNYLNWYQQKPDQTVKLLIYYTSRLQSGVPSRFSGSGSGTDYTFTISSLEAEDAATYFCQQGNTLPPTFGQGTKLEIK
Solution: 940000

From: patent US20150111251A1
